Across several publications, the following pIC50 results were reported for Prostaglandin G/H synthase 1 (Ovis aries).
# system-tested: Prostaglandin G/H synthase 1 (Ovis aries)
# Sequence (P05979 whole entry): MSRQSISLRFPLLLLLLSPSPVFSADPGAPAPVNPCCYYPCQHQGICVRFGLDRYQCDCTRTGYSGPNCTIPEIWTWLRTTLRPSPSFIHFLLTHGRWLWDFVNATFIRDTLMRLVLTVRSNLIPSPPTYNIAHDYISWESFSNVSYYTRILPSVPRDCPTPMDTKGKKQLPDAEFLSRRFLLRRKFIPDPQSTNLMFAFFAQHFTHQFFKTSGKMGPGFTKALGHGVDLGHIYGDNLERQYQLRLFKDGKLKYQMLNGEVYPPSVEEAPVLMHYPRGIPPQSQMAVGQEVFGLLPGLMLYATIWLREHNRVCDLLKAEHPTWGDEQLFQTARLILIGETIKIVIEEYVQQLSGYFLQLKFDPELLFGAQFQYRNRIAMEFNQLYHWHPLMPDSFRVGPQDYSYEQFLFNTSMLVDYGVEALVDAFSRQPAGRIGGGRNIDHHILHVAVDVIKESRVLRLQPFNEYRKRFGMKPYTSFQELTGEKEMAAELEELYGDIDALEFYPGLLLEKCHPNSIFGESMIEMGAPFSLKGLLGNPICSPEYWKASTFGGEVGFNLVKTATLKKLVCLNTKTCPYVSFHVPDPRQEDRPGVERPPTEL
pIC50: −log10 of the molar value.

The following compounds have reported results that may help.
>  <compound>
NS(=O)(=O)c1ccc(N2N=C(C(F)(F)F)CC2c2c[nH]c3cc(F)ccc23)cc1 (configuration not stated)

>  <quantity-measured>
pIC50

>  <recorded-value>
< 4.00

$$$$
>  <compound>
COC1(c2cccc(CNc3ccccc3OCc3ccccc3)c2)CCOCC1

>  <quantity-measured>
pIC50

>  <recorded-value>
< 4.00

$$$$
>  <compound>
CCOc1ccc(-c2cc(-c3ccccc3)c(-c3ccc(S(C)(=O)=O)cc3)c(=O)o2)cc1

>  <quantity-measured>
pIC50

>  <recorded-value>
< 4.00

$$$$
>  <compound>
O=C1OCC(c2ccc(F)cc2)=C1c1ccc(O)cc1

>  <quantity-measured>
pIC50

>  <recorded-value>
< 4.60

$$$$
>  <compound>
CCOC(=O)[C@H](OCc1cnnn1[C@@H](Cc1ccc(O)cc1)C(=O)OC)[C@@H](OCc1cnnn1[C@@H](Cc1ccc(O)cc1)C(=O)OC)C(=O)OCC

>  <quantity-measured>
pIC50

>  <recorded-value>
< 5.00

$$$$

Exercise: Tell me pIC50 reported for CCCCCCC(Sc1nc(Cl)cc(Nc2cccc(C)c2C)n1)C(=O)O (configuration not stated)
Key: < 5.00

Exercise: Please supply the value of reported pIC50 for the item CC(C)Cc1ccc(C(C)C(=O)OCCNS(=O)(=O)c2cccc3c(N(C)C)cccc23)cc1 (configuration not stated)
Key: < 4.00

Exercise: Please look at this compound and report its pIC50: NCCOc1nc(Cl)nc(Nc2ccc(N3CCOCC3=O)cc2)n1
Key: < 5.00

Exercise: For the compound COc1ccc2c(c1)c(CC(=O)Nc1ccc(C(N)=O)cc1)c(C)n2C(=O)c1ccc(Cl)cc1 , report pIC50.
Key: < 4.18

Exercise: Return pIC50 for the following compound: C/C=C(\C)C(=O)O[C@@H]1[C@@H](C)[C@@]2(O)[C@@H](C(=O)C(CO)=C[C@]3(O)C(=O)C(C)=C[C@@H]23)[C@@H]2C(C)(C)[C@]12OC(=O)C(C)CC (some centres not stated)
Key: < 4.30

Exercise: Quickly give me recorded pIC50 for CCCCCCC(Sc1nc(Cl)cc(Oc2ccc3ncccc3c2)n1)C(=O)O (configuration not stated)
Key: < 5.00
